Cited source for all entries: PubChem BioAssay (NCI)

- Test system: MCF7 breast
- test protocol: NCI tumour cell line growth inhibition, 48 h
experimental endpoint: GI50

smiles_notation=COc1ccc(-c2cc(-c3cc(Cl)ccc3Cl)nc3n[nH]c(N)c23)cc1 result="3.45 µM"
smiles_notation=Nc1c(C(=O)c2cccc(CCCN3CCOCC3)c2)cnn1-c1ccc(F)cc1 result="> 25 µM"
smiles_notation=O=C1C(Cl)=C(Nc2cccc(Cl)c2)C(=O)N1Cc1ccccc1 result="14.9 µM"

---

# TGI listing for each entry below
- System: CAKI-1 renal
- test protocol: NCI tumour cell line growth inhibition, 48 h
Where a name gives a salt, the structure may show the parent alone. Where a SMILES comes first, the peptide text is derived from it. The star is where a group is joined. Tfa = O=C(C(F)(F)F)*
experimental endpoint: TGI

compound=CO/N=C(\C)c1ccc(Nc2c3ccccc3nc3occc23)cc1 result="7.15 µM"
compound=COc1cc2c(cc1OC)-c1cc3ccccc3c[n+]1CC2 result="> 100 µM"
compound=CN(C)c1ccc2c(=O)c3ccccc3oc2n1 result="> 100 µM"
compound="Cc1cc2nc(C(C)C(=O)c3ccc(Cl)cc3)c(=O)[nH]c2cc1C (stereo not given)" result="> 100 µM"
compound=CN=C(N)N/N=C(\C)c1ccc2c(c1)Cc1cc(/C(C)=N/NC(N)=NC)ccc1-2 result="5.37 µM"
compound=CC(C)(C)c1cc(C(=O)Nc2cc(Br)c(Br)cc2S(N)(=O)=O)cc(C(C)(C)C)c1O result="22.8 µM"
compound="COC1=C2CC(C)CC(OC)C(O)C(C)/C=C(\\C)C(OC(N)=O)C(OC)/C=C\\C=C(/C)C(=O)NC(=C(C=NC(C)(C)C)C1=O)C2=O (stereo not given)" result="23.7 µM"
compound="NC(Cc1ccc(S(=O)(=O)O)cc1)C(=O)NC(CCCCNC(=O)NCCCCC(NC(=O)C(N)Cc1ccc(S(=O)(=O)O)cc1)C(=O)NC(Cc1ccc(S(=O)(=O)O)cc1)C(=O)O)C(=O)NC(Cc1ccc(S(=O)(=O)O)cc1)C(=O)O (stereo not given)" result="> 100 µM"
compound=CC(C)(C)c1cc(CC2C(=O)c3ccccc3C2=O)cc(C(C)(C)C)c1O result="20.4 µM"
compound="C/C=C/[C@H]1O[C@@](O)([C@@H](C)[C@H](O)[C@H](C)[C@H]2OC(=O)/C(OC)=C/C(C)=C/[C@@H](C)[C@@H](O)[C@@H](CC)[C@@H](O)[C@H](C)C/C(C)=C/C=C/[C@@H]2OC)C[C@H](OC2CC(O)C(O)C(C)O2)[C@@H]1C (stereo not given in full)" result="11.9 µM"
compound=O=[N+]([O-])c1ccc(S(=O)(=O)Cc2ccccc2)c([N+](=O)[O-])c1 result="3.2 µM"
compound="CC(=O)OC1C(C)OC(Oc2c(C)c3c4c(c2O)[C@@H](C)CC[C@@H]4[C@@H](C)C[C@H]3C=C(C)C)C(O)C1O (stereo not given in full)" result="3.74 µM"
compound=CC1(C)N=C(N)N=C(N)N1c1cccc(CCCCc2cccc(S(=O)(=O)F)c2)c1 result="> 100 µM"
compound=O=C(NC1CCN(Cc2ccccc2)CC1)c1cc(-c2ccncc2)nc2ccc(Cl)cc12 result="> 50.5 µM"
compound="OC(c1cccc(-n2ccc(C(F)(F)F)n2)c1)c1cnccc1NC1CCCCCC1 (stereo not given)" result="2.96 µM"
compound=O=C(/C=C1\N=C(c2ccccc2)N(c2nc3ccc(Sc4ccccc4)cc3[nH]2)C1=O)/C=C/c1ccccc1 result="> 100 µM"
compound=Cc1ccccc1C(=O)c1c(O)c2c(c(O)c1Br)CCCC2 result="35.9 µM"
compound="O=C1/C(=C/c2ccccc2)CCCC1CN1CCCCC1 (stereo not given)" result="3.2 µM"
compound=O=C(Nc1cccc(-n2ccc3c(NC(=O)c4ccccc4)nccc32)c1)c1ccc(N2CCOCC2)c(C(F)(F)F)c1 result="14.8 µM"
compound=C=C1C(=O)O[C@H]2[C@H]1CC/C(CNC(=O)Cc1c[nH]c3ccccc13)=C\CC[C@@]1(C)O[C@@H]21 result="17.1 µM"
compound=Cc1c2c(c(C)n1-c1ccccc1)C(=O)N(CCCCN1CCN(c3ccccc3)CC1)C2=O result="> 100 µM"
compound="COc1cc(C2SC(N)=Nc3c2c(C)nn3C(=O)c2ccccc2O)cc(OC)c1OC (stereo not given)" result="> 10 µM"
compound="CC1CC[C@]2(C(=O)O)CCC3(COC(=O)/C=C\\c4ccc(O)cc4)C(=CCC4[C@@]5(C)CC[C@H](O)C(C)(C)C5CC[C@]43C)[C@@H]2[C@H]1C (stereo not given in full)" result="48.3 µM"
compound=C/C(CN1C(=O)c2ccccc2C1=O)=N\NS(=O)(=O)c1ccc(C)cc1 result="> 100 µM"
compound="O=C(O)CC(NC(=O)C(F)(F)F)C(=O)NC(Cc1ccc(O)cc1)C(=O)O (stereo not drawn) (Tfa-Asp-Tyr-OH; configuration not given here)" result="> 50 µM"
compound=Cc1cn(Cc2ccccc2CCO)c(=S)[nH]c1=O result="> 100 µM"
compound=O=C(O)CCNc1ccccc1C(=O)O result="> 100 µM"
compound="COC(=O)[C@@]12C(=O)C=CC(=O)[C@@H]1C1C(=CC2COC(C)=O)O[C@@H]2OC3(CCCCC3)O[C@H]12 (stereo not given in full)" result="25.4 µM"
compound=COc1cccc2c1C(=O)C=CC2=O result="13 µM"
compound=N=C(N)c1ccc(OCc2cccc(COc3ccc(C(=N)N)cc3)c2)cc1 result="27.2 µM"
compound=COc1ccc2[nH]c(=O)c3c4ccccc4cn3c2c1 result="0.839 µM"
compound=O=C1c2ccccc2-c2c1c1ccccc1c(=O)n2CCCCNCCCn1c2c(c3ccccc3c1=O)C(=O)c1ccccc1-2 result="4.21 µM"
compound=C=CCn1c(=O)c2ccccc2[n+]2c(C)c(C(=O)OCC)sc12 result="> 100 µM"
compound="CCCCCCCC1C(C)c2c([nH]c3ccccc23)C2C(=O)N(c3ccc(OC)cc3)C(=O)C21 (stereo not given)" result="> 8.37 µM"
compound="CC1CC(C2=CC=CCS2)=Nc2ccccc2S1 (stereo not given)" result="> 100 µM"

---

- Tested on: NCI-H522 lung
- test protocol: NCI tumour cell line growth inhibition, 48 h; in the data active = GI50 below about 0.43 µM; inactive = the rest
Outcomes: 1 (yes) = active, 0 (no) = inactive

molecule=CC(=O)N[C@@H](Cc1ccc(OP(=O)(O)O)cc1)C(=O)N[C@H]1CCC(=O)N2CCC[C@@H](C(=O)NCc3ccc(Cl)cc3)N2C1=O tested_on="NCI-H522 lung" class_name="0 (no)"
molecule=CC1(C#N)N(C(=O)c2ccccc2)c2ccccc2N1C(=O)c1ccccc1 tested_on="NCI-H522 lung" class_name="0 (no)"
molecule=Cc1ccc([N+](=O)[O-])cc1NC(=O)Nc1cccc(F)c1 tested_on="NCI-H522 lung" class_name="0 (no)"
molecule="CCS(=O)(=O)N1CCC(C(C)n2c(C)c(C(=O)NCc3c(OC)cc(C)[nH]c3=O)c3ccccc32)CC1 (stereo not drawn)" tested_on="NCI-H522 lung" class_name="0 (no)"
molecule=F tested_on="NCI-H522 lung" class_name="0 (no)"
molecule=COc1cc2c(cc1O)CC[C@@H]1[C@@H]2CC[C@]2(C)[C@@H](NCCN(C)C)CC[C@@H]12 tested_on="NCI-H522 lung" class_name="1 (yes)"
molecule=COc1cc(C(=O)/C=C/c2c(C)n([O-])c3ccc(C)cc3[n+]2=O)cc(OC)c1OC tested_on="NCI-H522 lung" class_name="0 (no)"
molecule=FC(F)(F)Oc1cccc(-c2cnc3ccc(-c4ccncc4)nn23)c1 tested_on="NCI-H522 lung" class_name="0 (no)"
molecule=O=C(Nc1cccc(-n2ccc3c(NC(=O)c4ccccc4)nccc32)c1)c1ccc(N2CCOCC2)c(C(F)(F)F)c1 tested_on="NCI-H522 lung" class_name="1 (yes)"
molecule=Nc1c(C(=O)c2cccc(CCCN3CCOCC3)c2)cnn1-c1ccc(F)cc1 tested_on="NCI-H522 lung" class_name="0 (no)"
molecule=CCN(CC)CCOCC[C@H]1CC[C@H]2[C@@H]3[C@H](C)Cc4cc(OS(N)(=O)=O)ccc4[C@H]3CC[C@]12C tested_on="NCI-H522 lung" class_name="0 (no)"
molecule=CC1(C)N=C(N)N=C(N)N1c1cccc(CCCCc2cccc(S(=O)(=O)F)c2)c1 tested_on="NCI-H522 lung" class_name="0 (no)"
molecule=FC(F)(F)c1nc(N2CCCC2)ncc1-c1nnnn1-c1ccc(Cl)cc1 tested_on="NCI-H522 lung" class_name="0 (no)"

---

- Tested on: PC-3 prostate
- test protocol: NCI tumour cell line growth inhibition, 48 h; in the data active = GI50 below about 0.43 µM; inactive = the rest
Labels: true (1) for active, false (0) for inactive

compound=COc1cc(NS(C)(=O)=O)ccc1Nc1c2ccc([N+](=O)[O-])cc2nc2c(C)cccc12 tested_on="PC-3 prostate" class_name="false (0)"
compound=O=C(Nc1cccc(-n2ccc3c(NC(=O)c4ccccc4)nccc32)c1)c1ccc(N2CCOCC2)c(C(F)(F)F)c1 tested_on="PC-3 prostate" class_name="true (1)"
compound=COc1ccc2oc(=O)cc(C(c3ccc[nH]3)c3ccc[nH]3)c2c1 tested_on="PC-3 prostate" class_name="true (1)"
compound=CCOC(=O)c1c2c(c(O)c3ccccc3c(O)n(Cc3ccc(OC)cc3)c1C)C(=O)C=CC2=O tested_on="PC-3 prostate" class_name="false (0)"
compound="COc1cc(C2c3[nH]c4ccccc4c3C[C@H]3COC(=O)N23)cc(OC)c1OC (stereo partly specified)" tested_on="PC-3 prostate" class_name="true (1)"
compound=O=C1c2ccccc2-c2c1c1ccccc1c(=O)n2CCCCNCCCn1c2c(c3ccccc3c1=O)C(=O)c1ccccc1-2 tested_on="PC-3 prostate" class_name="true (1)"
compound=Cc1nc(-c2cccc(Nc3nc(-c4ccc(Cl)cc4)cs3)c2)cs1 tested_on="PC-3 prostate" class_name="false (0)"
compound="Clc1ccc(CSC(Cn2ccnc2)c2ccc(Cl)cc2Cl)cc1 (stereo unspecified)" tested_on="PC-3 prostate" class_name="false (0)"
compound=NCCNc1c2c(c(NCCN)c3c(CO)c[nH]c13)C(=O)c1ccccc1C2=O tested_on="PC-3 prostate" class_name="false (0)"
compound=Nc1ccc2c(c1)C(=O)C(=O)c1c-2nc2ccccn12 tested_on="PC-3 prostate" class_name="false (0)"
compound=COc1cc2c(cc1O)CC[C@@H]1[C@@H]2CC[C@]2(C)[C@@H](NCCN(C)C)CC[C@@H]12 tested_on="PC-3 prostate" class_name="true (1)"
